Collected Percent Effect values appear next to each entry.
# experimental.target: AMP-activated protein kinase, AMPK (Homo sapiens) (UniProt P54646+O43741+P54619+Q9UGJ0+Q9Y478+Q13131+Q9UGI9)
# test.details: AMP-dependent Kinase enzyme assay. An in vitro enzyme assay that detects ADP turnover that is directly proportional to AMPK activity. This uses naive AMPK that is activated during the assay with MK-8722
# Format: functional
# Set-up: scale not given: direction of the effect not stated beside the values
# test.parameters: 30 µM
property.label: Percent Effect (%)

In [3]: df
Out[3]:
                                    molecule  obs_value
 0      Cn1cc(CCC(=O)N2CCN(Cc3ccncc3)CC2)cn1       3.53
 1  Cn1cnnc1C1CCCN(C(=O)NCCc2ccccc2F)C1 (centres undefined)     -0.267
 2  Cc1noc(C2CCCN(C(=O)c3ccc(Br)o3)C2)n1 (centres undefined)      -5.37
 3            Cc1cccc(CN2CCc3ncnc(C)c3CC2)n1       5.73
 4  O=C(c1cc(COc2ccc3c(c2)OCO3)[nH]n1)N1CC=CC1CO (centres undefined)       9.97
 5  CC(C)(C)OC(=O)N1CCN(C(=O)c2sccc2C2CC2)CC1       5.24
 6     O=C(NCCC(=O)N1CCCCCC1)c1c(O)cc(F)cc1F       1.53
 7             Cc1ccoc1-c1nnc(CNCCn2cccn2)o1      -3.87
 8  CC(=O)Nc1nc(C(=O)NCc2ccc(N3CCCCCC3)nc2)cs1       5.19
 9   O=C(NCCNc1cnccn1)C1CCN(C(=O)N2CCCC2)CC1       -1.9
10  CC(O)CN1CCN(C(=O)c2cccc(CC#N)c2)CC1 (centres undefined)      -4.34
11  Cc1nc(C)n(CC2CCCN(c3ncnc4[nH]ccc34)C2)n1 (centres undefined)       69.9
12  Cn1cc(N2CCC3(CCN(S(=O)(=O)C4CC4)C3)C2=O)cn1 (centres undefined)      0.251
13      OC1(Cn2ccc3ncccc32)CCN(Cc2ccccn2)CC1       8.71
14  CN1CCCC[C@@H]2[C@H]1[C@@H](c1ccccc1)CCN2C(=O)c1ccccc1       2.42
15      Cc1nccc(CNC(=O)NCCOc2ccc(F)c(F)c2)n1     -0.557
16  COc1cc(C(=O)N(Cc2ccc(F)cc2)C2CC2)cc2c1OCCO2       1.68
17  c1cnn(CC2CCCN2c2ncnc3sccc23)c1 (centres undefined)       2.65
18  CN(C(=O)c1cccc2[nH]ncc12)C1CCN(c2ccccn2)CC1      -0.81

----------
Collected Percent Effect values appear next to each entry.
# System: Trypanosoma cruzi
# test.details: Trypanosoma cruzi phosphomannomutase and mannose-1-phosphate guanylyltransferase assay
# Type: functional
# Set-up: scale not given: direction of the effect not stated beside the values
# test.parameters: 10 µM
property.label: Percent Effect (%)

                                    compound  unit_of_measure  obs_value
 0  c1ccc(-c2cnc(CN3CCn4c(nnc4C4CC4)C3)o2)cc1                %     -0.564
 1  CSc1ccc(S(=O)(=O)N2CCCCC2CCNC(C)=O)cc1 (centres undefined)                %       1.59
 2         CC(C)(C)NC(=O)CNC(=O)CCc1ccccc1Br                %       4.37
 3  Cc1ccc(C(=O)N2CCN(C(=O)NC(C)Cn3ccnc3)CC2)o1 (centres undefined)                %       3.38
 4  CCc1n[nH]c(C2CN(Cc3nccn3CC)CCO2)n1 (centres undefined)                %       2.45
 5  Cc1cc(NC(=O)C(c2cccc(F)c2)N2CCOCC2)ccn1 (centres undefined)                %       1.66
 6  CCC1CCCCN1C(=O)c1ccc2[nH]nnc2c1 (centres undefined)                %      -1.17
 7      CC(C)c1nnc2ccc(N3CCC(C(N)=O)CC3)nn12                %      -4.52
 8  CCC(C)[C@H](NC(=O)c1cc(Br)ccc1-n1cnnn1)C(=O)OC (some centres undefined)                %      -2.36
 9  O=C(CN1CCCCC1Cn1cncn1)NCCc1ccc(F)cc1 (centres undefined)                %      -6.89
10  CC(O)CN1CCN(C(=O)c2cc3ccccc3[nH]c2=O)CC1 (centres undefined)                %       -3.8
11  O=C(Cn1nc(-c2ccc(F)cc2)oc1=O)NCc1ccc(F)cc1                %      -7.52
12  O=C(NCC(O)c1cccc(F)c1)c1cccnc1O (centres undefined)                %       9.52
13  CCCOc1ccc(CNC(=O)N2CCC(C(N)=O)C2)cc1 (centres undefined)                %      -2.36

----------
# experimental.target: AMP-activated protein kinase, AMPK (Homo sapiens) (UniProt P54646+O43741+P54619+Q9UGJ0+Q9Y478+Q13131+Q9UGI9)
# test.details: AMP-dependent Kinase enzyme assay. An in vitro enzyme assay that detects ADP turnover that is directly proportional to AMPK activity. This uses naive AMPK that is activated during the assay with MK-8722
# Assay type: functional
# Parameters: scale not given: direction of the effect not stated beside the values
# test.parameters: 30 µM
Collected Percent Effect values appear next to each entry.
property.label: Percent Effect (%)

                                   compound  property_label  obs_value
0     CN(C)S(=O)(=O)c1ccc(OCCNCCn2cccn2)cc1  Percent Effect       2.35
1  Cc1ccc(CN(Cc2cccnc2)C2CC(C)(C)NC(C)(C)C2)s1  Percent Effect       9.33
2  CN(C)S(=O)(=O)N1C[C@H](Oc2cccnc2)[C@H]2OCCC[C@H]21  Percent Effect         74
3  O=C(Cc1ccccn1)N1CCN(C(=O)c2cccc3[nH]ncc23)CC1  Percent Effect       15.9
4  Cc1nc(CN2C[C@@H]3CN(C(=O)c4cnccn4)C[C@@H]3C2)cs1  Percent Effect      0.106
5  O=C(c1ccoc1)N1CC[C@@H]2O[C@H](COCc3ccccn3)CC[C@@H]21  Percent Effect        2.6
6  CCOCC1CN(S(C)(=O)=O)Cc2ncn(CC3CC3)c21 (centres undefined)  Percent Effect      -8.53
7   O=C(c1cnccn1)N1CCN(Cc2ccncc2)c2ncccc2C1  Percent Effect       2.52
8  Cc1cccc(CN2C[C@@H]3CN(C(=O)c4ccsc4)C[C@@H]3C2=O)c1  Percent Effect       5.77

----------
Collected Percent Effect values appear next to each entry.
# experimental.target: Tyrosyl-tRNA synthetase, putative (Trypanosoma cruzi (strain CL Brener)) (UniProt Q4DSP6)
# Sequence (Q4DSP6 as listed by the source): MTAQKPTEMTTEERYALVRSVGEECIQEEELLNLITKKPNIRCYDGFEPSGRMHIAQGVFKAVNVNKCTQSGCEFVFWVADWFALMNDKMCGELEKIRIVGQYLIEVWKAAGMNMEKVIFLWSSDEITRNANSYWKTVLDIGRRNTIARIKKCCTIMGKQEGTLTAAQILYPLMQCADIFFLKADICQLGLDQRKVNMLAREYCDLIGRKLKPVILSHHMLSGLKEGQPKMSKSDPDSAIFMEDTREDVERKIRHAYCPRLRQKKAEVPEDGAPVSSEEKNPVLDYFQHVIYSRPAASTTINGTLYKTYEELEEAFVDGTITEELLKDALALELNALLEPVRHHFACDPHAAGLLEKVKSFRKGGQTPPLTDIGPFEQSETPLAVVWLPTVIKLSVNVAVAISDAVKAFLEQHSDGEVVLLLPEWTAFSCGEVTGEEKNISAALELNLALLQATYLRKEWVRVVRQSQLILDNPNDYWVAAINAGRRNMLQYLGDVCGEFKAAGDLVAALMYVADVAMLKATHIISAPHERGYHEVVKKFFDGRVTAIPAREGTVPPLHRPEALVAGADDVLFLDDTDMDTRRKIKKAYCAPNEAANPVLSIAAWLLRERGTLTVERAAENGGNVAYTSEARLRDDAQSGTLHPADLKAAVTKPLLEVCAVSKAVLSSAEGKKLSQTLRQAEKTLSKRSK
# test.details: Trypanosoma cruzi tyrosyl tRNA synthetase (TcYRS) _High Tyrosine SOP; also: in the data most compounds retested in dose-response had high values
# Format: functional
# Design: scale not given: direction of the effect not stated beside the values
# test.parameters: 30 µM
property.label: Percent Effect (%)

>>> print(df.to_string())
                                   compound  unit_of_measure  obs_value
0            O=S1(=O)COCCN1Cc1ccc(Cl)c(F)c1                %       5.82
1  OC(COCc1ccccc1Cl)CN1CC(n2cccn2)C1 (stereo unspecified)                %       4.41
2          COc1ccccc1OCC(=O)Nc1ncccc1OC(F)F                %       1.05
3  CC(OCC(F)(F)F)C(=O)N1CCN(S(C)(=O)=O)CC1 (stereo unspecified)                %       6.45
4  Cc1n[nH]c(C2CN(C(=O)c3ccco3)CCO2)n1 (stereo unspecified)                %       6.38
5    O=C(NCC1CC1)c1nc(COc2ccc3c(c2)OCO3)no1                %       4.23

----------
# experimental.target: Sialic acid-binding Ig-like lectin 9 (Homo sapiens)
# test.details: Hs-Siglec9 ALPHAscreen SOP 20170721
# Set-up: scale not given: direction of the effect not stated beside the values
# test.parameters: 10 µM
property.label: Percent Effect

                                   compound                       experimental_target  obs_value
0  Cc1cc(CC(=O)N2CCCC2c2nc(C(C)C)no2)on1 (stereo not drawn)  Sialic acid-binding Ig-like lectin 9 (Homo sapiens)      26.8%
1  Cc1nc(Nc2nccs2)cc(C2CCCN2C2CCOCC2)n1 (stereo not drawn)  Sialic acid-binding Ig-like lectin 9 (Homo sapiens)      1.96%
2  COc1ccc2c(c1)C1(CCN(Cc3ccoc3)CC1)N(C)CC2  Sialic acid-binding Ig-like lectin 9 (Homo sapiens)      3.45%

Where do these numbers come from? They come from ChEMBL document CHEMBL3988442.
